All figures here come from patent US20230398130A1.

Test system: ISC-enriched organoids
Experiment: Primary screen, 384-well 2.5-D organoid differentiation (ENR+CD, 6 days): basal lysozyme secretion (LYZ.NS)
Format: cell-based, murine
Conditions: primary screen, dose 10.00 uM, standard z score of FC
reported-endpoint: Z.LYZ.NS

Provide each entry's Z.LYZ.NS from the list below.
1. C[C@@H]1COCCN1c1cc(C2(S(C)(=O)=O)CC2)nc(-c2cccc3[nH]ccc23)n1
2. CC1(C)CCC(CN2CCN(c3ccc(C(=O)NS(=O)(=O)c4ccc(NCC5CCOCC5)c([N+](=O)[O-])c4)c(Oc4cnc5[nH]ccc5c4)c3)CC2)=C(c2ccc(Cl)cc2)C1
3. O=C1NC(=O)/C(=C/c2ccc(-c3ccc(F)cc3O)o2)S1
4. CCNC(=O)c1noc(-c2cc(C(C)C)c(O)cc2O)c1-c1ccc(CN2CCOCC2)cc1
5. Cc1cc([C@@H](C)Nc2ccccc2C(=O)O)c2nc(N3CCOCC3)cc(=O)n2c1
6. C=CC(=O)Nc1cccc(Nc2nc(Nc3ccc(OCCOC)cc3)ncc2F)c1
7. CN(C)Cc1ccc(-c2nc3cccc4c3n2CCNC4=O)cc1

Reply:
−2.271
−1.471
−0.671
−1.330
−2.160
−1.858
−1.713

Hello, I would appreciate it if you could give Z.LYZ.NS for each entry below.
1. CC1(C)CCC(c2ccc(Cl)cc2)=C(CN2CCN(c3ccc(C(=O)NS(=O)(=O)c4ccc(N[C@H](CCN5CCOCC5)CSc5ccccc5)c(S(=O)(=O)C(F)(F)F)c4)cc3)CC2)C1
2. CNC(=O)[C@H](Cc1ccccc1)NC(=O)[C@H](CC(C)C)[C@H](CSc1cccs1)C(=O)NO
3. CN1CCc2cc3c(cc2[C@H]1[C@@H]1OC(=O)c2c1ccc1c2OCO1)OCO3 [(+)-Bicuculline]
4. C=C1C(=O)O[C@H]2[C@H]1CC/C(C)=C/CC[C@@]1(C)O[C@@H]21 [(−)-Parthenolide]
5. COc1cc2c(cc1O)CC[C@@H]1[C@@H]2CC[C@]2(C)[C@@H](O)CC[C@@H]12

Reply:
1. −2.259
2. −0.649
3. 0.176
4. 1.159
5. −1.209
